Biological target: recombinant human DPP7 (Homo sapiens, UniProt Q9UHL4)
Construct: purchased R&D Systems
Assay: DPP7 inhibition, fluorogenic substrate Lys-Pro-AMC
Type: biochemical
Conditions: recombinant human DPP7
pIC50: −log10 of the molar value.
Label Criterion met when pIC50 is at or above 6; otherwise label Criterion not met.

Past entries and their recorded results:
Cc1cnc2cccc(N(C)[C@H]3CCN(CC(=O)N4C[C@@H](F)C[C@H]4C#N)C3)c2c1 [Example 155] ... Criterion not met
N#Cc1cccc2c(OC3CCN(CC(=O)N4C[C@@H](F)C[C@H]4C#N)CC3)ccnc12 [Example 434] ... Criterion not met
N#C[C@@H]1CCCN1C(=O)CN1CC[C@H](Nc2ccc(C(F)(F)F)c3ncccc23)C1 [Example 245] ... Criterion not met

Task item: Decide: pIC50 of N#C[C@@H]1CCCN1C(=O)CN1CC[C@H](Nc2cc(C(F)(F)F)cc3ncccc23)C1 [Example 238] >= 6?
Reply: Criterion not met

Task item: # iterate: Cc1cc(OC2CCN(CC(=O)N3C[C@@H](F)C[C@H]3C#N)CC2)c2cc(F)ccc2n1 [Example 437]
Reply: Criterion not met

Task item: Entry CN(C)C(=O)c1ccc(N[C@H]2CCN(CC(=O)N3C[C@@H](F)C[C@H]3C#N)C2)c2cccnc12 [Example 282] please
Reply: Criterion met

Task item: Again, but for N#C[C@@H]1C[C@H](F)CN1C(=O)CN1CC[C@H](Nc2ccc(C(=O)Nc3ccccn3)c3ncccc23)C1 [Example 294]
Reply: Criterion met

Task item: Input N#C[C@@H]1C[C@H](F)CN1C(=O)CN1CCC(Nc2ccc(C(=O)Nc3ncccn3)c3ncccc23)CC1 [Example 403]
Reply: Criterion met

Task item: Could you do the same for N#C[C@@H]1CCCN1C(=O)CN1CC[C@H](Nc2cccc3ncc(F)cc23)C1 [Example 234] , please?
Reply: Criterion not met

Task item: Repeat with CCN(c1cnc2ccccc2c1)C1CCN(CC(=O)N2CCC[C@H]2C#N)CC1 [Example 302]
Reply: Criterion not met

Task item: // query: Cc1cccc2c(N[C@@H]3CCN(CC(=O)N4C[C@@H](F)C[C@H]4C#N)C3)ccnc12 [Example 190]
Reply: Criterion met

====

Target: recombinant human DPP9 (Homo sapiens, UniProt Q86TI2)
Construct: purchased R&D Systems
Sequence (Q86TI2 whole entry): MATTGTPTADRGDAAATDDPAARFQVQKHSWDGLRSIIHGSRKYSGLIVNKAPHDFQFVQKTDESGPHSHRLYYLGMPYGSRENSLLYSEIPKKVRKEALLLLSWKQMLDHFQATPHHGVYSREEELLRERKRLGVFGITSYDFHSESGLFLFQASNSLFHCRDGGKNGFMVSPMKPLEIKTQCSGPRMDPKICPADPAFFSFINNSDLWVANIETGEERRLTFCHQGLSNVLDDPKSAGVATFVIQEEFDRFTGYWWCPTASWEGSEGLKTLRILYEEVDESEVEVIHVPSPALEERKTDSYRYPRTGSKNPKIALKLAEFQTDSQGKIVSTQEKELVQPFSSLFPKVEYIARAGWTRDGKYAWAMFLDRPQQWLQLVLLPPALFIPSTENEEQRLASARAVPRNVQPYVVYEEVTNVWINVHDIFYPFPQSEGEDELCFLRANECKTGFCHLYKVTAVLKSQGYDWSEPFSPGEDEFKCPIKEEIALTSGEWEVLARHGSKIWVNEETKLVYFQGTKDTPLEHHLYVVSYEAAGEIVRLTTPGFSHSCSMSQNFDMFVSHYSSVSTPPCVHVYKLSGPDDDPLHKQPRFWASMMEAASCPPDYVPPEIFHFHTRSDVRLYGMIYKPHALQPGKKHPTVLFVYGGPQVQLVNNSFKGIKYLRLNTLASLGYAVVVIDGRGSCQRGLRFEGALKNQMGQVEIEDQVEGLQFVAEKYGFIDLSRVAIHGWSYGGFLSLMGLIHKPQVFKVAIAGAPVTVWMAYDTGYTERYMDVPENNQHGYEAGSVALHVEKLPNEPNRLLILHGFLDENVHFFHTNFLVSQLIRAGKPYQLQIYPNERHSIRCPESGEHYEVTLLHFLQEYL
Experiment: DPP9 inhibition, fluorogenic substrate H-Gly-Pro-AMC
Type: biochemical
Conditions: 25° C., H-Gly-Pro-AMC substrate
// boundary case: IC50 equal to 6 µM maps to Not satisfied; strictly smaller maps to Satisfied

N#C[C@@H]1CCCN1C(=O)CN1CC[C@H](NC(=O)c2coc3cccc(O)c23)C1 [Example 48] ... Not satisfied
N#C[C@@H]1CC(F)(F)CN1C(=O)CN1CC[C@H](Nc2cccc3sccc23)C1 [Example 9] ... Not satisfied
N#C[C@@H]1CCCN1C(=O)CN1CC[C@H](NC(=O)c2cc3ccccc3s2)C1 [Example 36] ... Not satisfied
N#C[C@@H]1C[C@H](F)CN1C(=O)CN1CCC(Nc2cc(F)cc3ncccc23)CC1 [Example 132] ... Satisfied
N#C[C@@H]1CC(F)(F)CN1C(=O)CN1CC[C@H](Oc2cccc3[nH]c(=O)ccc23)C1 [Example 108] ... Not satisfied
N#C[C@@H]1CC(F)(F)CN1C(=O)CN1CC[C@H](Oc2ccnc3c(C(F)(F)F)cccc23)C1 [Example 104] ... Not satisfied
CN(c1cnc2ccc(F)cc2c1)[C@H]1CCN(CC(=O)N2CCC[C@H]2C#N)C1 [Example 151] ... Not satisfied

Task item: Quick check: IC50 of N#C[C@@H]1CC(F)(F)CN1C(=O)CN1CC[C@H](Nc2cncc3ccccc23)C1 [Example 8] under 6 µM?
Reply: Satisfied

====

Give IC50 for every item shown.
Molecular target: recombinant human DPP7 (Homo sapiens)
Construct: purchased R&D Systems
Experiment: DPP7 inhibition, fluorogenic substrate Lys-Pro-AMC
Type: biochemical
Conditions: recombinant human DPP7
Answers are plain numbers, in µM.

Check out these entries, answers already filled in.
N#C[C@@H]1C[C@H](F)CN1C(=O)CN1CC[C@@H](Nc2cc(C(F)(F)F)cc3ncccc23)C1 ... 0.819
N#C[C@@H]1C[C@H](F)CN1C(=O)CN1CC[C@H](Nc2ccc3ncccc3c2)C1 ... 0.654
COc1ccc(N[C@@H]2CCN(CC(=O)N3C[C@@H](F)C[C@H]3C#N)C2)c2cccnc12 ... 5.96
CN(c1ccc2ncccc2c1)C1CCN(CC(=O)N2C[C@@H](F)C[C@H]2C#N)CC1 ... 1.05
CN(c1cc2ccccc2cn1)C1CCN(CC(=O)N2C[C@@H](F)C[C@H]2C#N)CC1 ... 1.85

For every record below, what is its IC50?
1. CN(c1ccc2ccncc2c1)C1CCN(CC(=O)N2C[C@@H](F)C[C@H]2C#N)CC1
2. N#C[C@@H]1C[C@H](F)CN1C(=O)CN1CCC(Oc2ccc3cnccc3c2)CC1
3. N#C[C@@H]1C[C@H](F)CN1C(=O)CN1CC[C@@H](Nc2cccc3ncc(F)cc23)C1

Reply:
1: 1.32; 2: 1.22; 3: 2.76

====

Biological target: Recombinant human FAP (Homo sapiens, UniProt Q12884)
Construct: purchased R&D systems
Sequence (Q12884 whole entry): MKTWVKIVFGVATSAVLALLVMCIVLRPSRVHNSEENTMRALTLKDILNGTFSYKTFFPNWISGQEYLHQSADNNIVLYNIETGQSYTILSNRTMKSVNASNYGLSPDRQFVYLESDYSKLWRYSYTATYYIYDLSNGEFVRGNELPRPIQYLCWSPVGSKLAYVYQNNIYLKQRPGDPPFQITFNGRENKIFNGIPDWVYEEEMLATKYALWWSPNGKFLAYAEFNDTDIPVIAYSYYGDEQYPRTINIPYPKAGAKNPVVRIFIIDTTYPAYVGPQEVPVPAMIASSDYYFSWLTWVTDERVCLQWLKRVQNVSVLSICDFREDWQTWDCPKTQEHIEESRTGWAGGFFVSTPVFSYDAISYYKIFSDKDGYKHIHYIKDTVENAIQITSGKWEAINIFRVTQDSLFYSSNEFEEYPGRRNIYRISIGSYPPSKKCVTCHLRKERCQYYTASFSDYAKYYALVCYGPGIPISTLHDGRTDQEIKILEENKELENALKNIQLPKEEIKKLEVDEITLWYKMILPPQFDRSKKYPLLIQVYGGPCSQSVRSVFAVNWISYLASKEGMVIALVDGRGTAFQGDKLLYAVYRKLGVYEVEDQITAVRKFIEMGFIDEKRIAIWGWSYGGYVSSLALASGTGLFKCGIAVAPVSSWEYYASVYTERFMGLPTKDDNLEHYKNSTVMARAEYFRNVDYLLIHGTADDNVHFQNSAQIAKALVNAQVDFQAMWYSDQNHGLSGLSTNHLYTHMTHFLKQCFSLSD
Experiment: FAP inhibition, fluorogenic substrate Z-Gly-Pro-AMC
Type: biochemical
Details: recombinant human FAP, substrate Z-Gly-Pro-AMC
OUTCOME_MEASURE: pIC50
Answers are plain numbers, as −log10 of the molar value.

Worked cases, answers included:
Cc1ccc2ncccc2c1N[C@H]1CCN(CC(=O)N2CCC[C@H]2C#N)C1 ... 8.22
CN(c1cc2ccccc2cn1)C1CCN(CC(=O)N2C[C@@H](F)C[C@H]2C#N)CC1 ... 8.57
N#Cc1ccc2c(N[C@H]3CCN(CC(=O)N4CCC[C@H]4C#N)C3)cccc2n1 ... 9.00
Cc1cncc2cccc(NC3CCN(CC(=O)N4C[C@@H](F)C[C@H]4C#N)CC3)c12 ... 8.05
Cc1ccc2ncccc2c1N[C@H]1CCN(CC(=O)N2C[C@@H](F)C[C@H]2C#N)C1 ... 8.59

For the 7 compounds below, give their pIC50 values.
1. CN(c1ccnc2ccccc12)C1CCN(CC(=O)N2CCC[C@H]2C#N)CC1
2. N#C[C@@H]1CCCN1C(=O)CN1CC[C@H](Nc2cccc3ncc(F)cc23)C1
3. CN(c1cccc2cnccc12)C1CCN(CC(=O)N2C[C@@H](F)C[C@H]2C#N)CC1
4. N#C[C@@H]1CCCN1C(=O)CN1CC[C@H](Nc2ccc3ncccc3c2)C1
5. N#C[C@@H]1CCCN1C(=O)CN1CC[C@H](Nc2cc(F)cc3ncccc23)C1
6. N#C[C@@H]1C[C@H](F)CN1C(=O)CN1CCC(Oc2cc(C(F)(F)F)nc3ccc(F)cc23)CC1
7. N#C[C@@H]1C[C@H](F)CN1C(=O)CN1CCC(Nc2cncc3ccncc23)CC1

Reply:
1: 7.01; 2: 8.89; 3: 7.74; 4: 8.03; 5: 8.82; 6: 8.52; 7: 8.72

For every item below, please supply its pIC50.
1. N#C[C@@H]1C[C@H](F)CN1C(=O)CN1CCC(Oc2ccc3ccncc3c2)CC1
2. COc1cc(N[C@H]2CCN(CC(=O)N3C[C@@H](F)C[C@H]3C#N)C2)c2cccnc2c1
3. N#C[C@@H]1C[C@H](F)CN1C(=O)CN1CC[C@H](Nc2c(F)ccc3ncccc23)C1
4. N#C[C@@H]1CCCN1C(=O)CN1CC[C@@H](Nc2ccc3ncccc3c2)C1
5. N#C[C@@H]1C[C@H](F)CN1C(=O)CN1CCC(Nc2ccnc3ccc(F)cc23)CC1

Reply:
1: 8.03; 2: 9.05; 3: 8.70; 4: 8.28; 5: 8.11

====

Target: Recombinant human FAP (Homo sapiens)
Construct: purchased R&D systems
Test: FAP inhibition, fluorogenic substrate Z-Gly-Pro-AMC
Assay type: biochemical
Settings: 25° C., Z-Gly-Pro-AMC substrate
Experimental: The compounds according to the present technology were evaluated in terms of the inhibitory effect on the activity of dipeptidyl peptidases including FAP by using a substrate producing fluorescent substances upon enzymatic decomposition. […] Fluorescence intensity was measured using a microplate reader (Flexstation3, Molecular Devices) under the wavelength condition exciting at 380 nm and reading the emission at 460 nm. […]
For each entry below, report its IC50 value.
Answers are plain numbers, in nM.

These solved cases illustrate the format of a correct answer.
N#C[C@@H]1CCCN1C(=O)CN1CC[C@H](NC(=O)c2coc3cc(O)ccc23)C1 [Example 49] ... 4.42
N#C[C@@H]1CC(F)(F)CN1C(=O)CN1CC[C@H](Oc2cccc3ncccc23)C1 [Example 105] ... 1.21
COc1ccc2occ(C(=O)N[C@H]3CCN(CC(=O)N4CCC[C@H]4C#N)C3)c2c1 [Example 46] ... 7.7
Cc1cnc2cccc(NC3CCN(CC(=O)N4C[C@@H](F)C[C@H]4C#N)CC3)c2c1 [Example 131] ... 2.73
N#C[C@@H]1CCCN1C(=O)CN1CC[C@H](Nc2cncc3ccoc23)C1 [Example 23] ... 3.08

For the 3 molecules below, give their IC50 values.
1. Cc1ccc2ncccc2c1NC1CCN(CC(=O)N2CCC[C@H]2C#N)CC1 [Example 122]
2. N#C[C@@H]1CCCN1C(=O)CN1CC[C@H](NC(=O)c2csc3ccccc23)C1 [Example 41]
3. N#C[C@@H]1CCCN1C(=O)CN1CC[C@H](Oc2ccc(Cl)c3ccccc23)C1 [Example 71]

Reply:
1: 445; 2: 3.7; 3: 42.6

Source of measurements: patent US11655235B2
